Catalogue of binding signal values
# study_system: AGO2 A367P (Homo sapiens, UniProt Q9UKV8 1-859, A367P;S387D;S824A;S828D;S831D;S834A)
# Sequence (Q9UKV8 whole entry A367P/S387D/S824A/S828D/S831D/S834A): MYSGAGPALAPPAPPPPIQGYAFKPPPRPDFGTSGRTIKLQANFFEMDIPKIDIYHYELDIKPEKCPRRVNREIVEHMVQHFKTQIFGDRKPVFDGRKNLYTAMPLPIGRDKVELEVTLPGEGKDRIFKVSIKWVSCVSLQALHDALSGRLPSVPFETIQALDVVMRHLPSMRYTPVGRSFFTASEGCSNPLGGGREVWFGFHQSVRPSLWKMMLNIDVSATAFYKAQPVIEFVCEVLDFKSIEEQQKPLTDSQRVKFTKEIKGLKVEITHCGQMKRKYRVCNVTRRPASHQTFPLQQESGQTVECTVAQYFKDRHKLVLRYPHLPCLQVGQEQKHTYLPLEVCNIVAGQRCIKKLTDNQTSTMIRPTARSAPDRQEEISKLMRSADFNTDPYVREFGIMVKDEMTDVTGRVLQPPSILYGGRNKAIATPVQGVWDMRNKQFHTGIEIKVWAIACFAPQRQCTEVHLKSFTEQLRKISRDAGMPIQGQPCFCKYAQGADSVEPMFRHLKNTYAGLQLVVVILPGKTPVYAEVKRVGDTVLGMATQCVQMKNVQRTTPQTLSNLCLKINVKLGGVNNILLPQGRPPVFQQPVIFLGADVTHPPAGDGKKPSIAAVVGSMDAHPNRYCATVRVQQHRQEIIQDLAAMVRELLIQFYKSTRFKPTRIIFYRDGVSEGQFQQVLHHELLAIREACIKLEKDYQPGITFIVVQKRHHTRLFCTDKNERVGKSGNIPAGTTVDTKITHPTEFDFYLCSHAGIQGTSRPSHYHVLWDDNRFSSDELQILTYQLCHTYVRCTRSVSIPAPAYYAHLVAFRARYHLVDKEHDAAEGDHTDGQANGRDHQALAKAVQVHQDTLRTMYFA
# test_name: RNA Bind-n-Seq (nitrocellulose filter binding and sequencing); miR-122 guide loaded in AGO2; 60 min incubation; 30 mM Tris pH 8.0, 100 mM potassium acetate, 2 mM magnesium acetate, 0.5 mM TCEP, 0.005% NP-40, 0.01 mg/ml yeast tRNA; 3 nM AGO2-miR-122, 100 nM RNA library; 60; high values mean tight binding
# study_conditions: protein: recombinant; tags: His6 (N-terminal, pFastBac HTA)

Observe how each entry below is paired with its result.
| binder | assay_readout | value |
| --- | --- | --- |
| GCGCTTTA (ssRNA, constant regions annealed to DNA blockers; guide miR-122 5' phosphate) RNA 1: GAGUUCUACAGUCCGACGAUCCCAACGCGCUUUACACCUGGAAUUCUCGGGUGCCAA RNA 2: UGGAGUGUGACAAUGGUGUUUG DNA 1: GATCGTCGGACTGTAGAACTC DNA 2: TTGGCACCCGAGAATTCCA | binding signal | 0.201 fold enrichment over input |
| GCACTTCA (ssRNA, constant regions annealed to DNA blockers; guide miR-122 5' phosphate) RNA 1: GAGUUCUACAGUCCGACGAUCCCAACGCACUUCACACCUGGAAUUCUCGGGUGCCAA RNA 2: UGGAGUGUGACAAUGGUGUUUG DNA 1: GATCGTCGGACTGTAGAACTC DNA 2: TTGGCACCCGAGAATTCCA | binding signal | 0.348 fold enrichment over input |
| ACGTCCTA (ssRNA, constant regions annealed to DNA blockers; guide miR-122 5' phosphate) RNA 1: GAGUUCUACAGUCCGACGAUCCCAACACGUCCUACACCUGGAAUUCUCGGGUGCCAA RNA 2: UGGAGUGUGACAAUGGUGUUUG DNA 1: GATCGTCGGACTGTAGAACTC DNA 2: TTGGCACCCGAGAATTCCA | binding signal | 0.205 fold enrichment over input |
| GTGTCTCG (ssRNA, constant regions annealed to DNA blockers; guide miR-122 5' phosphate) RNA 1: GAGUUCUACAGUCCGACGAUCCCAACGUGUCUCGCACCUGGAAUUCUCGGGUGCCAA RNA 2: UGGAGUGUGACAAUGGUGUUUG DNA 1: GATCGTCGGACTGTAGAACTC DNA 2: TTGGCACCCGAGAATTCCA | binding signal | 0.125 fold enrichment over input |
| GCGTTTTG (ssRNA, constant regions annealed to DNA blockers; guide miR-122 5' phosphate) RNA 1: GAGUUCUACAGUCCGACGAUCCCAACGCGUUUUGCACCUGGAAUUCUCGGGUGCCAA RNA 2: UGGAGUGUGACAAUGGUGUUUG DNA 1: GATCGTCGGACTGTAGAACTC DNA 2: TTGGCACCCGAGAATTCCA | binding signal | 0.136 fold enrichment over input |
| GTATTTCA (ssRNA, constant regions annealed to DNA blockers; guide miR-122 5' phosphate) RNA 1: GAGUUCUACAGUCCGACGAUCCCAACGUAUUUCACACCUGGAAUUCUCGGGUGCCAA RNA 2: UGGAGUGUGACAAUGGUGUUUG DNA 1: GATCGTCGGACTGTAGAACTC DNA 2: TTGGCACCCGAGAATTCCA | binding signal | 0.337 fold enrichment over input |
| GCGTCTCA (ssRNA, constant regions annealed to DNA blockers; guide miR-122 5' phosphate) RNA 1: GAGUUCUACAGUCCGACGAUCCCAACGCGUCUCACACCUGGAAUUCUCGGGUGCCAA RNA 2: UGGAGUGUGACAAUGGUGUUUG DNA 1: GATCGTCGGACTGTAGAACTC DNA 2: TTGGCACCCGAGAATTCCA | binding signal | 0.271 fold enrichment over input |
| GTGTCTCA (ssRNA, constant regions annealed to DNA blockers; guide miR-122 5' phosphate) RNA 1: GAGUUCUACAGUCCGACGAUCCCAACGUGUCUCACACCUGGAAUUCUCGGGUGCCAA RNA 2: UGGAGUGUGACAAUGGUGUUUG DNA 1: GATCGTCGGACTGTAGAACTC DNA 2: TTGGCACCCGAGAATTCCA | binding signal | 0.222 fold enrichment over input |
| GTACCCTA (ssRNA, constant regions annealed to DNA blockers; guide miR-122 5' phosphate) RNA 1: GAGUUCUACAGUCCGACGAUCCCAACGUACCCUACACCUGGAAUUCUCGGGUGCCAA RNA 2: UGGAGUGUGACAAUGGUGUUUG DNA 1: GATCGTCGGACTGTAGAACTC DNA 2: TTGGCACCCGAGAATTCCA | binding signal | 0.168 fold enrichment over input |
| ACATCCTG (ssRNA, constant regions annealed to DNA blockers; guide miR-122 5' phosphate) RNA 1: GAGUUCUACAGUCCGACGAUCCCAACACAUCCUGCACCUGGAAUUCUCGGGUGCCAA RNA 2: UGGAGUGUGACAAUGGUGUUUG DNA 1: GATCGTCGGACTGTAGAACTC DNA 2: TTGGCACCCGAGAATTCCA | binding signal | 0.171 fold enrichment over input |

binding signal recorded for this binder, GCATTTCA (ssRNA, constant regions annealed to DNA blockers; guide miR-122 5' phosphate) RNA 1: GAGUUCUACAGUCCGACGAUCCCAACGCAUUUCACACCUGGAAUUCUCGGGUGCCAA RNA 2: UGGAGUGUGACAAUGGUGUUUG DNA 1: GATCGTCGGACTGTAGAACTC DNA 2: TTGGCACCCGAGAATTCCA , is 0.434 fold enrichment over input

binding signal recorded for this binder, ATATTTCG (ssRNA, constant regions annealed to DNA blockers; guide miR-122 5' phosphate) RNA 1: GAGUUCUACAGUCCGACGAUCCCAACAUAUUUCGCACCUGGAAUUCUCGGGUGCCAA RNA 2: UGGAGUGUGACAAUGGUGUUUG DNA 1: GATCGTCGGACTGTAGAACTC DNA 2: TTGGCACCCGAGAATTCCA , is 0.135 fold enrichment over input

binding signal recorded for this binder, ATGCTTCG (ssRNA, constant regions annealed to DNA blockers; guide miR-122 5' phosphate) RNA 1: GAGUUCUACAGUCCGACGAUCCCAACAUGCUUCGCACCUGGAAUUCUCGGGUGCCAA RNA 2: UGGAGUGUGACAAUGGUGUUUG DNA 1: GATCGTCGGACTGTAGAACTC DNA 2: TTGGCACCCGAGAATTCCA , is 0.127 fold enrichment over input

binding signal recorded for this binder, ATACTCCA (ssRNA, constant regions annealed to DNA blockers; guide miR-122 5' phosphate) RNA 1: GAGUUCUACAGUCCGACGAUCCCAACAUACUCCACACCUGGAAUUCUCGGGUGCCAA RNA 2: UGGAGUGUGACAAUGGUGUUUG DNA 1: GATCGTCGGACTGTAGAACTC DNA 2: TTGGCACCCGAGAATTCCA , is 6.04 fold enrichment over input

binding signal recorded for this binder, GTACTTTG (ssRNA, constant regions annealed to DNA blockers; guide miR-122 5' phosphate) RNA 1: GAGUUCUACAGUCCGACGAUCCCAACGUACUUUGCACCUGGAAUUCUCGGGUGCCAA RNA 2: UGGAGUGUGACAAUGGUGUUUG DNA 1: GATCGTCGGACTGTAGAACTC DNA 2: TTGGCACCCGAGAATTCCA , is 0.121 fold enrichment over input
